# TEST METHOD NOTES: Cytotoxicity against HDF at 100 uM after 4 hrs by alamar blue assay
# DETAILS: human
MEASURED PROPERTY: Activity

{"columns": ["STRUCTURE AS SMILES", "MEASURED VALUE"],
 "data": [
  ["CC(=O)O.CCc1nc(N)nc(N)c1C#C[C@H](C)c1cc(-c2ccc(C(=O)O)cc2)ccc1OC", "Non-toxic"],
  ["CCc1nc(N)nc(N)c1C#C[C@@H](C)c1cc(OC)cc(-c2ccc(C(=O)O)cc2)c1", "Non-toxic"],
  ["CCc1nc(N)nc(N)c1C#CCc1cc(-c2cccc(C(=O)O)c2)ccc1OC.O=C(O)C(F)(F)F", "Non-toxic"],
  ["CCc1nc(N)nc(N)c1C#CCc1cc(-c2ccccc2C(=O)O)ccc1OC", "Non-toxic"],
  ["CCc1nc(N)nc(N)c1C#CCc1cc(OC)cc(-c2ccc(C(=O)O)cc2)c1.O=C(O)C(F)(F)F", "Non-toxic"],
  ["CCc1nc(N)nc(N)c1C#C[C@H](C)c1cc(OC)cc(-c2ccc(C(=O)O)cc2)c1", "Non-toxic"],
  ["CC(=O)O.CCc1nc(N)nc(N)c1C#C[C@@H](C)c1cc(-c2ccc(C(=O)O)cc2)ccc1OC", "Non-toxic"]
]}

====

# Tested on: Escherichia coli
# TEST METHOD NOTES: Antibacterial activity against Escherichia coli NR698 harboring imp gene deletion mutant by alamar blue reagent based micro dilution broth assay
# Assay type: functional
Mark yes (1) for MIC under 10 ng/mL, no (0) if at or over.

{"columns": ["MOLECULE", "GROUP"],
 "data": [
  ["CCc1nc(N)nc(N)c1C#C[C@@H](C)c1cc(OC)cc(-c2ccc(C(=O)O)cc2)c1", "yes (1)"],
  ["CCc1nc(N)nc(N)c1C#CCc1cc(-c2ccccc2C(=O)O)ccc1OC", "no (0)"],
  ["CCc1nc(N)nc(N)c1C#CCc1cc(OC)cc(-c2ccc(C(=O)O)cc2)c1.O=C(O)C(F)(F)F", "yes (1)"],
  ["CCc1nc(N)nc(N)c1C#CCc1cc(-c2cccc(C(=O)O)c2)ccc1OC.O=C(O)C(F)(F)F", "no (0)"],
  ["CC(=O)O.CCc1nc(N)nc(N)c1C#C[C@@H](C)c1cc(-c2ccc(C(=O)O)cc2)ccc1OC", "yes (1)"],
  ["CN(Cc1cnc2nc(N)nc(N)c2n1)c1ccc(C(=O)N[C@@H](CCC(=O)O)C(=O)O)cc1 [METHOTREXATE]", "no (0)"],
  ["CC(=O)O.CCc1nc(N)nc(N)c1C#C[C@H](C)c1cc(-c2ccc(C(=O)O)cc2)ccc1OC", "no (0)"],
  ["CCc1nc(N)nc(N)c1C#C[C@H](C)c1cc(OC)cc(-c2ccc(C(=O)O)cc2)c1", "yes (1)"]
]}

====

# TEST METHOD NOTES: Therapeutic index, ratio of IC50 for human MCF10A cells to MIC for Staphylococcus aureus ATCC 43300
# Format: cell-based, MCF-10A
# DETAILS: read-out: TI
MEASURED PROPERTY: selectivity ratio

{"columns": ["STRUCTURE AS SMILES", "MEASURED VALUE"],
 "data": [
  ["CCc1nc(N)nc(N)c1C#CCc1cc(-c2ccc(C(=O)O)cc2)ccc1OC", "> 500000"]
]}

# credit: ChEMBL document CHEMBL3826924
